system: ATP; test: switch fluorescence ratio, 500 uM ATP over buffer (Cy3 cluster intensity, sum of 5 cycles each) (fold (ratio)); higher = stronger signal-on switching upon ATP binding; sequences stand for … in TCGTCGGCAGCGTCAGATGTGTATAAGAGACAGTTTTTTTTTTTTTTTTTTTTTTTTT…TC; conditions: aptamer strand: ATP DNA aptamer (quencher-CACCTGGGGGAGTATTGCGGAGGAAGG + anchor), 100 nM annealed; ATP concentration: 500 uM;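 note: ATP exposure 15 min at 22 °C before imaging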
reported-metric: switch fluorescence ratio

residue-codes: ACGGCGAGGG
reported-metric: switch fluorescence ratio
recorded-measurement: 1.02
--
residue-codes: GACTTTTTGT
reported-metric: switch fluorescence ratio
recorded-measurement: 0.994
--
residue-codes: TTTGGGGGTA
reported-metric: switch fluorescence ratio
recorded-measurement: 1.06
--
residue-codes: CTCCATCGGG
reported-metric: switch fluorescence ratio
recorded-measurement: 1.31
--
residue-codes: CCTGCAGGGG
reported-metric: switch fluorescence ratio
recorded-measurement: 1.09
--
residue-codes: TTTCCGGACG
reported-metric: switch fluorescence ratio
recorded-measurement: 1.02
--
residue-codes: TCTTTGGGAC
reported-metric: switch fluorescence ratio
recorded-measurement: 0.994
--
residue-codes: ATGTCAGATT
reported-metric: switch fluorescence ratio
recorded-measurement: 1.01
--
residue-codes: CATAGTTCTG
reported-metric: switch fluorescence ratio
recorded-measurement: 0.981
--
residue-codes: TTGGAAGGGC
reported-metric: switch fluorescence ratio
recorded-measurement: 1.01
--
residue-codes: TAGAGAAGCC
reported-metric: switch fluorescence ratio
recorded-measurement: 1.04
--
residue-codes: TTGCGGCTTG
reported-metric: switch fluorescence ratio
recorded-measurement: 0.992
--
residue-codes: TTAATATGGA
reported-metric: switch fluorescence ratio
recorded-measurement: 0.999
--
residue-codes: CTTTTTTAAT
reported-metric: switch fluorescence ratio
recorded-measurement: 0.982
--
residue-codes: CTGAGTCGGA
reported-metric: switch fluorescence ratio
recorded-measurement: 0.983
--
residue-codes: CGAGGAGGGA
reported-metric: switch fluorescence ratio
recorded-measurement: 0.969
--
residue-codes: AGAGGTTGG
reported-metric: switch fluorescence ratio
recorded-measurement: 0.996
--
residue-codes: ACTGGGGGTT
reported-metric: switch fluorescence ratio
recorded-measurement: 0.994
--
residue-codes: GGCACAGATG
reported-metric: switch fluorescence ratio
recorded-measurement: 1.02
--
residue-codes: CAGAGGTCGT
reported-metric: switch fluorescence ratio
recorded-measurement: 1.01
--
residue-codes: ACCAGCTACA
reported-metric: switch fluorescence ratio
recorded-measurement: 1.09
--
residue-codes: ATGTTATTG
reported-metric: switch fluorescence ratio
recorded-measurement: 0.973
--
residue-codes: ACTAAGTCTG
reported-metric: switch fluorescence ratio
recorded-measurement: 1.02
--
residue-codes: GCAGATTAGC
reported-metric: switch fluorescence ratio
recorded-measurement: 1.03
--
residue-codes: TTCCTTTTTT
reported-metric: switch fluorescence ratio
recorded-measurement: 1.03
--
residue-codes: CGACTGAGGT
reported-metric: switch fluorescence ratio
recorded-measurement: 1.03
--
residue-codes: ATTGTTAAGC
reported-metric: switch fluorescence ratio
recorded-measurement: 1.02
--
residue-codes: GCTGGTTGGC
reported-metric: switch fluorescence ratio
recorded-measurement: 0.964
--
residue-codes: TGGGTAAGTA
reported-metric: switch fluorescence ratio
recorded-measurement: 0.993
--
residue-codes: TTTTTATGCC
reported-metric: switch fluorescence ratio
recorded-measurement: 0.963
--
residue-codes: TTCGTTGTGC
reported-metric: switch fluorescence ratio
recorded-measurement: 1.01
--
residue-codes: CTTAGGGCAC
reported-metric: switch fluorescence ratio
recorded-measurement: 1.05
--
residue-codes: CTAATGGGAG
reported-metric: switch fluorescence ratio
recorded-measurement: 0.973
--
residue-codes: AAATCGAAAC
reported-metric: switch fluorescence ratio
recorded-measurement: 1.03
--
residue-codes: CTCAAAAACA
reported-metric: switch fluorescence ratio
recorded-measurement: 1.02
--
residue-codes: ACCTATTCGT
reported-metric: switch fluorescence ratio
recorded-measurement: 1.05
--
residue-codes: AGGGTCGCTA
reported-metric: switch fluorescence ratio
recorded-measurement: 1
--
residue-codes: TTCTTAACAT
reported-metric: switch fluorescence ratio
recorded-measurement: 1.05
--
residue-codes: CGCGAGCTTT
reported-metric: switch fluorescence ratio
recorded-measurement: 1.02
--
residue-codes: TGGGATACGA
reported-metric: switch fluorescence ratio
recorded-measurement: 4.47
--
residue-codes: TATAGCCTCG
reported-metric: switch fluorescence ratio
recorded-measurement: 0.976
--
residue-codes: GAGAGTTGCG
reported-metric: switch fluorescence ratio
recorded-measurement: 1.04
--
residue-codes: CGGGGAGGCT
reported-metric: switch fluorescence ratio
recorded-measurement: 0.988
--
residue-codes: TTGGCTCTGG
reported-metric: switch fluorescence ratio
recorded-measurement: 0.987
--
residue-codes: TCAATCAGAG
reported-metric: switch fluorescence ratio
recorded-measurement: 1.01
--
residue-codes: TTGATGCTAT
reported-metric: switch fluorescence ratio
recorded-measurement: 1.32
--
residue-codes: GCGTTCCGTA
reported-metric: switch fluorescence ratio
recorded-measurement: 1.02
--
residue-codes: CGGGGATCTA
reported-metric: switch fluorescence ratio
recorded-measurement: 1
--
residue-codes: GACTTCCATT
reported-metric: switch fluorescence ratio
recorded-measurement: 1.07
--
residue-codes: ATAAGCGTTC
reported-metric: switch fluorescence ratio
recorded-measurement: 1.04
--
residue-codes: GGTAAAAAGG
reported-metric: switch fluorescence ratio
recorded-measurement: 0.971
--
residue-codes: TTCGGGTTGG
reported-metric: switch fluorescence ratio
recorded-measurement: 1.02
--
residue-codes: TGCAAAATTT
reported-metric: switch fluorescence ratio
recorded-measurement: 0.995
--
residue-codes: AAAGACGCGG
reported-metric: switch fluorescence ratio
recorded-measurement: 0.992
--
residue-codes: CTACTGAAGG
reported-metric: switch fluorescence ratio
recorded-measurement: 0.983
--
residue-codes: TGGAGTTGGT
reported-metric: switch fluorescence ratio
recorded-measurement: 0.987
--
residue-codes: GGGACGACAG
reported-metric: switch fluorescence ratio
recorded-measurement: 1.04
--
residue-codes: GAGGCTAATT
reported-metric: switch fluorescence ratio
recorded-measurement: 1.03
--
residue-codes: GTTAGTGTAG
reported-metric: switch fluorescence ratio
recorded-measurement: 0.997
--
residue-codes: TGCATATGGG
reported-metric: switch fluorescence ratio
recorded-measurement: 0.978
--
residue-codes: CAAATGTTAT
reported-metric: switch fluorescence ratio
recorded-measurement: 1.02
--
residue-codes: AGGGGGAGTT
reported-metric: switch fluorescence ratio
recorded-measurement: 0.979
--
residue-codes: CCTGGAGGTT
reported-metric: switch fluorescence ratio
recorded-measurement: 0.964
--
residue-codes: TAAGGATTGT
reported-metric: switch fluorescence ratio
recorded-measurement: 1.03
--
residue-codes: ATGTCGGTTT
reported-metric: switch fluorescence ratio
recorded-measurement: 1.02
--
residue-codes: TCCATCTGGG
reported-metric: switch fluorescence ratio
recorded-measurement: 1.01
--
residue-codes: AAATGGTGGT
reported-metric: switch fluorescence ratio
recorded-measurement: 1.02
--
residue-codes: TGTGGGTTCC
reported-metric: switch fluorescence ratio
recorded-measurement: 1.06
--
residue-codes: TTCTACGGTC
reported-metric: switch fluorescence ratio
recorded-measurement: 1.01
--
residue-codes: CAATTGCAAT
reported-metric: switch fluorescence ratio
recorded-measurement: 1.02
--
residue-codes: TGTGTATTGG
reported-metric: switch fluorescence ratio
recorded-measurement: 1
--
residue-codes: GCGTTATTTT
reported-metric: switch fluorescence ratio
recorded-measurement: 1.01
--
residue-codes: TTAAACGGGA
reported-metric: switch fluorescence ratio
recorded-measurement: 1.03
--
residue-codes: CTGTAAGTGG
reported-metric: switch fluorescence ratio
recorded-measurement: 0.989
--
residue-codes: CAAGATTCGG
reported-metric: switch fluorescence ratio
recorded-measurement: 0.986
--
residue-codes: GACATTGTTG
reported-metric: switch fluorescence ratio
recorded-measurement: 1.04
--
residue-codes: TTCCGACTTA
reported-metric: switch fluorescence ratio
recorded-measurement: 1.14
--
residue-codes: AATGCTGGGG
reported-metric: switch fluorescence ratio
recorded-measurement: 1.05
--
residue-codes: TTCCTTGGGT
reported-metric: switch fluorescence ratio
recorded-measurement: 1.01
--
residue-codes: AAAACAAGGA
reported-metric: switch fluorescence ratio
recorded-measurement: 1.01
--
residue-codes: CCTAGTACCT
reported-metric: switch fluorescence ratio
recorded-measurement: 1.19
--
residue-codes: GTACGGGGGT
reported-metric: switch fluorescence ratio
recorded-measurement: 0.996
--
residue-codes: TCGGCACGGA
reported-metric: switch fluorescence ratio
recorded-measurement: 0.999
--
residue-codes: AGATTGGGCA
reported-metric: switch fluorescence ratio
recorded-measurement: 0.981
--
residue-codes: TTTTTTGTCG
reported-metric: switch fluorescence ratio
recorded-measurement: 0.993
--
residue-codes: TCATTTCAGC
reported-metric: switch fluorescence ratio
recorded-measurement: 1.03

The reported numbers originate from the supplement of paper PMC10126150.
